Data origin: patent US7517998B2

molecular target: K103NNY181C mutant reverse transcriptase (Human immunodeficiency virus type 1 group M subtype B, UniProt P04585, K690N/Y768C); construct: mutations that occur in the reverse transcriptase segment of the pol gene; assay: Reverse transcriptase enzymatic assay (PicoGreen), K103N/Y181C mutant RT; format: biochemical, HIV-1; conditions: IC50 mut, mutant reverse transcriptase, enzymatic assay of Example 24
Measured IC50 accompanies every entry in the list below.
Respond with the bare value in nM.

Example entries and their recorded answers appear below.
MOLECULE | PROPERTY | READING_UNIT | RECORDED_RESULT
Cc1cc(NC(=O)c2ccc(NC(=O)CSc3nnnn3-c3ccc(C(C)(C)C)cc3Cl)c(Cl)c2)ccc1/C=C/C(=O)O [Compound 6032] | IC50 | nM | 20.5
COC(=O)C=C(C)c1ccc(NC(=O)CSc2nnnn2-c2ccc(C3CC3)cc2Cl)c(Cl)c1 [Compound 3044] | IC50 | nM | 58.5
CC(C)(C)c1ccc(-n2nnnc2SCC(=O)Nc2ccc(C(=O)Nc3ccc(O)cc3)cc2Cl)c(Cl)c1 [Compound 6013] | IC50 | nM | 34

Incoming: Could you share which IC50 value was measured for CC(C)(C)c1ccc(-n2nnnc2SCC(=O)Nc2ccc(C(=O)NC3CCN(Cc4ccccc4)CC3)cc2Cl)c(Cl)c1 [Compound 6009] ?
Outgoing: 73

Incoming: # iterate: CC(C)(C)c1ccc(-n2nnnc2SCC(=O)Nc2ccc(C(=O)Nc3ccccc3O)cc2Cl)c(Cl)c1 [Compound 6011]
Outgoing: 26

Incoming: Now consider CC(C)(C)c1ccc(-n2nnnc2SCC(=O)Nc2ccc(OCC(=O)Nc3ccc(N4CCOCC4)cc3)cc2Cl)c(Cl)c1 [Compound 5005] .
Outgoing: 216

* * *

biological target: K103NNY181C mutant reverse transcriptase (Human immunodeficiency virus type 1 group M subtype B, UniProt P04585, K690N/Y768C); construct: mutations that occur in the reverse transcriptase segment of the pol gene; experiment: Reverse transcriptase enzymatic assay (PicoGreen), K103N/Y181C mutant RT; assay type: biochemical, HIV-1; settings: IC50 mut, mutant reverse transcriptase, enzymatic assay of Example 24
Attribute: pIC50
The meaning of pIC50 here: minus log10 of the concentration in molar units.

MOLECULE | pIC50
CC(C)(C)c1ccc(-n2nnnc2SCC(=O)Nc2ccc(-c3ccc(OCC(=O)O)cc3Cl)cc2Cl)c(Cl)c1 | 6.81

Incoming: Record request: pIC50 value, item CC(CC(=O)O)NC(=O)COc1ccc(NC(=O)CSc2nnnn2-c2ccc(C(C)(C)C)cc2Cl)c(Cl)c1 (stereo not drawn)
Outgoing: 6.84

Incoming: Please do the same for CC(C)(C)c1cc(Cl)c(-n2nnnc2SCC(=O)Nc2ccc(-c3ccc(OCC(=O)O)cc3)cc2Cl)c(Cl)c1 as well.
Outgoing: 7.92

Incoming: Cc1cc(OCC(=O)O)ccc1-c1ccc(NC(=O)CSc2nnnn2-c2ccc(C(C)(C)C)cc2Cl)c(Cl)c1 , same question.
Outgoing: 6.47

Incoming: Could you do the same for CN1CCN(S(=O)(=O)c2ccc(NC(=O)CSc3nnnn3-c3ccc(C4CC4)cc3Cl)c(Cl)c2)CC1 , please?
Outgoing: 7.06

Incoming: Same lookup for CC(C)c1ccc(-n2nnnc2SCC(=O)Nc2ccc(-c3ccc(C(C)(C)C(=O)O)cc3)cc2Cl)c(Cl)c1 , please.
Outgoing: 7.25

Incoming: How about Cc1ccc(-n2c(C)cnc2SCC(=O)Nc2ccc(-c3ccc(CC(=O)O)cc3)cc2Cl)c(Cl)c1 ?
Outgoing: 6.26

Incoming: What do we get for COC(=O)c1ccc(-c2ccc(NC(=O)CSc3nnnn3-c3ccc(C)cc3Cl)c(Cl)c2)cc1 ?
Outgoing: 6.88

Incoming: Same again, this time with CC(C)(C)c1ccc(-n2nnnc2SCC(=O)Nc2ccc(OCC(=O)NCCc3ccc(O)cc3)cc2Cl)c(Cl)c1
Outgoing: 6.94

* * *

target: K103NNY181C mutant reverse transcriptase (Human immunodeficiency virus type 1 group M subtype B, UniProt P04585, K690N/Y768C); construct: mutations that occur in the reverse transcriptase segment of the pol gene; test: Reverse transcriptase enzymatic assay (PicoGreen), K103N/Y181C mutant RT; format: biochemical, HIV-1; settings: IC50 mut, K103N/Y181C mutant reverse transcriptase, enzymatic assay of Example 24
PROPERTY: IC50 (nM)
Give a bare numeral; the unit nM is implied.

Example results:
COMPOUND | IC50 [nM]
CC(C)(C#Cc1ccc(NC(=O)CSc2nnnn2-c2cc(Cl)ccc2Cl)c(Cl)c1)NC(=O)CN1CCNCC1 [Compound 4194] | 45
CN(C)CCCC(=O)NC(C)(C)C#Cc1ccc(NC(=O)CSc2nnnn2-c2cc(C(F)(F)F)ccc2Cl)c(Cl)c1 [Compound 4147] | 52
CNC(=O)COC(C)(C)C#Cc1ccc(NC(=O)CSc2nnnn2-c2ccc(C(C)(C)C)cc2Cl)c(Cl)c1 [Compound 4051] | 35
CC(C)(C#Cc1ccc(NC(=O)CSc2nnnn2-c2ccc(C3CC3)cc2Cl)c(Cl)c1)OCCN1CCC1 [Compound 4119] | 121
CC(C)(C#Cc1ccc(NC(=O)CSc2nnnn2-c2ccc(C3CC3)cc2Cl)c(Cl)c1)OCCN1CCCCC1 [Compound 4103] | 218

Incoming: Name the recorded IC50 for CC(C)(N)C#Cc1ccc(NC(=O)CSc2nnnn2-c2cc(C(F)(F)F)ccc2Cl)c(Cl)c1F [Compound 4163] .
Outgoing: 83

Incoming: Please do the same for CC(C)(C#Cc1ccc(NC(=O)CSc2nnnn2-c2ccc(C3CC3)cc2Cl)c(Cl)c1)OCCN [Compound 4190] as well.
Outgoing: 59.5

Incoming: What do we get for CC(C)(C#Cc1ccc(NC(=O)CSc2nnnn2-c2ccc(C3CC3)cc2Cl)c(Cl)c1)NC(=O)c1ccc[n+]([O-])c1 [Compound 4191] ?
Outgoing: 4.75

Incoming: Query CC(C)(C#Cc1ccc(NC(=O)CSc2nnnn2-c2ccc(C(C)(C)C)cc2Cl)c(Cl)c1)OCC(=O)N1CCCC1 [Compound 4038] next
Outgoing: 75

* * *

Quick reference for IC50 among some compounds
molecular target: K103NNY181C mutant reverse transcriptase (Human immunodeficiency virus type 1 group M subtype B, UniProt P04585, K690N/Y768C); construct: mutations that occur in the reverse transcriptase segment of the pol gene; experiment: Reverse transcriptase enzymatic assay (PicoGreen), K103N/Y181C mutant RT; format: biochemical, HIV-1; conditions: IC50 mut, mutant reverse transcriptase, enzymatic assay of Example 24
Give just the number in nM; leave the unit off.

CHEM_SMILES | IC50 (nM)
CC(C)(C)c1ccc(-n2nnnc2SCC(=O)Nc2ccc(OCC(=O)Nc3cccc(O)c3)cc2Cl)c(Cl)c1 | 69
CC(C)(C)c1ccc(-n2nnnc2SCC(=O)Nc2ccc(C(=O)Nc3ccc(CC(=O)O)cc3)cc2Cl)c(Cl)c1 | 69

Now examine the next entry.
Incoming: Entry Cc1cc(NC(=O)COc2ccc(NC(=O)CSc3nnnn3-c3ccc(C(C)(C)C)cc3Cl)c(Cl)c2)no1 has what IC50?
Outgoing: 71

* * *

molecular target: K103NNY181C mutant reverse transcriptase (Human immunodeficiency virus type 1 group M subtype B, UniProt P04585, K690N/Y768C); construct: mutations that occur in the reverse transcriptase segment of the pol gene; assay: Reverse transcriptase enzymatic assay (PicoGreen), K103N/Y181C mutant RT; assay type: biochemical, HIV-1; conditions: IC50 mut, K103N/Y181C mutant reverse transcriptase, enzymatic assay of Example 24
A collection of compounds and their measured IC50
Reply with just the number (in nM).

CHEM_SMILES | RECORDED_RESULT
Cc1cc(C#CC(C)(C)C(=O)O)ccc1NC(=O)CSc1nnnn1-c1ccc(C(C)(C)C)cc1Cl | 96

Incoming: Fill in the blank: the reported IC50 of O=C(CSc1nnnn1-c1ccc(C2CC2)cc1Cl)Nc1ccc(C#CC2(CNCCN3CCCC3)CC2)cc1Cl is ____.
Outgoing: 98.5

Incoming: Lookup CC(C)(N)C#Cc1ccc(NC(=O)CSc2nnnn2-c2cc(Br)ccc2Cl)c(Cl)c1
Outgoing: 97.5

* * *

Target: K103NNY181C mutant reverse transcriptase (Human immunodeficiency virus type 1 group M subtype B, UniProt P04585, K690N/Y768C)
Construct: mutations that occur in the reverse transcriptase segment of the pol gene
Assay: Reverse transcriptase enzymatic assay (PicoGreen), K103N/Y181C mutant RT
Type: biochemical, HIV-1
Details: IC50 mut, K103N/Y181C mutant reverse transcriptase, enzymatic assay of Example 24
Experimental: The enzymatic assay employed is described as follows: The reverse transcriptase (RT) enzyme assay has been adapted to a 96-well microtiter plate format and uses PicoGreen™ as a fluorescent intercalator. […] The plate was then analyzed using a POLARstar Galaxy fluorometer (BMG Labtechnologies) with λex and λem of 485 nm and 520 nm respectively. Each well was read for 1.25 second. […]
PROPERTY: IC50 (nM)
Write it as a number; the unit nM goes unstated.

Below: 5 molecules and their reported IC50.
CHEM_SMILES | IC50, nM
COc1ccc(Cl)c(-n2nnnc2SCC(=O)Nc2ccc(C#CC(C)(C)C(=O)O)cc2Cl)c1 | 200
CC(C)(C#Cc1ccc(NC(=O)CSc2nnnn2-c2ccc(C3CC3)cc2Cl)c(Cl)c1F)OCCN1CCNCC1 | 108
CC(C)(C#Cc1ccc(NC(=O)CSc2nnnn2-c2ccc(C3CC3)cc2Cl)c(Cl)c1)NC(=O)CN1CCCC1 | 38
CC(C)(C#Cc1ccc(NC(=O)CSc2nnnn2-c2cc(C(F)(F)F)ccc2Cl)c(Cl)c1F)NC(=O)c1cc[n+]([O-])cc1 | 18.5
CC(C)(C#Cc1ccc(NC(=O)CSc2nnnn2-c2cc(Br)ccc2Cl)c(Cl)c1)NC(=O)c1cc[n+]([O-])cc1 | 11.5

Incoming: Requested read-out: IC50. Entry: CC(=O)NC(C)(C)C#Cc1ccc(NC(=O)CSc2nnnn2-c2ccc(C3CC3)cc2Cl)c(Cl)c1
Outgoing: 8.45

Incoming: Subsequent entry: CC(C)(N)C#Cc1ccc(NC(=O)CSc2nnnn2-c2cc(C(C)(C)C)cc(Br)c2Cl)c(Cl)c1
Outgoing: 108
